System: NIH3T3
Assay Explanation: Antiproliferative activity against mouse NIH3T3 cells transfected with HRAS G12V mutant assessed as inhibition of cell growth incubated for 14 days by dissecting microscope based colony counting assay
Assay type: functional
Setup Conditions: NIH3T3, 336 h
Reported IC50 values for a set of compounds
Kindly provide the numeric value in nM only, without the unit symbol.

{"Compound Structure": "O=[N+]([O-])c1cc(C(F)(F)F)cc([N+](=O)[O-])c1NNC(=S)Nc1ccc(F)cc1", "System Tested": "NIH3T3", "Unit Tag": "nM", "IC50": 1400}

The compound listed as Cc1ccc(NC(=S)NNc2c([N+](=O)[O-])cc(C(F)(F)F)cc2[N+](=O)[O-])cc1Cl shows IC50 equal to 500

###

System Tested: GTPase HRas (Homo sapiens, UniProt P01112)
Measurement Label: IC50

{"Compound Structure": "Cc1ccc(NC(=S)NNc2c([N+](=O)[O-])cc(C(F)(F)F)cc2[N+](=O)[O-])cc1Cl", "IC50": "20 µM"}

Tested on GTPase HRas (Homo sapiens, UniProt P01112): O=[N+]([O-])c1cc(C(F)(F)F)cc([N+](=O)[O-])c1NNC(=S)Nc1ccc(F)cc1 . Observed IC50: 100 µM

###

System Tested: GTPase KRas (Homo sapiens, UniProt P01116, G12C)
Assay Explanation: Inhibition of KRAS G12C mutant in human NCI-H358 cells incubated for 6 hrs by LC-MS/MS analysis
Format: cell-based
Reported IC50 values for a set of molecules
Kindly provide the numeric value in µM only, without the unit symbol.

{"Compound Structure": "C=CC(=O)N1CCN(C(=O)CNc2cc(I)c(Cl)cc2O)CC1", "IC50, µM": 100}

The molecule listed as C=CC(=O)N1CC(N2CCN(C(=O)CNc3cc(Cl)c(Cl)cc3O)CC2)C1 shows IC50 equal to 50

###

System Tested: GTPase KRas (Homo sapiens, UniProt P01116, G12V)
Assay Explanation: Binding affinity to GppNHp-tagged KRAS G12V mutant (unknown origin)
Measurement Label: pKd
FYI, pKd means -log10 of a concentration in mol per litre.

Tested on GTPase KRas (Homo sapiens, UniProt P01116, G12V): O=C(NCC1COc2ccccc2O1)c1ccco1 (stereo unspecified) . Observed pKd: 3.63

Origin of measurements: ChEMBL document CHEMBL5241099
